For each record, write down the corresponding % inhibition of D93 binding to dn-collagen IV, peptide 1000 µM.
target: D93, recombinant humanized IgG1 kappa antibody targeting denatured-collagen; assay: competition ELISA on coated human dn-collagen IV
Square brackets hold non-standard residues; d marks the D form. Ends that are not written are not given here. Hyp = O=C(O)[C@@H]1C[C@@H](O)CN1

Some entries whose results are on file:
GPPG (also: hydroxyproline marking, if any, lost) [synthetic peptide No. 22, GPPG (SEQ ID NO: 35)] = 7.5%
LPGP[Hyp]GP[Hyp]GP [synthetic peptide No. 5, … (SEQ ID NO: 20)] = 92.5%

Next binder, % inhibition of D93 binding to dn-collagen IV, peptide 1000 µM to be filled in.
stdin: Param item = GPPGPPG (also: hydroxyproline at marked P positions, if any, marking lost) [synthetic peptide No. 23, GPPGPPG (SEQ ID NO: 33)] ; retrieve measured % inhibition of D93 binding to dn-collagen IV, peptide 1000 µM.
stdout: 6.5%
